- TARGET OF ASSAY: Human Rheumatoid Synovial collagenase (Homo sapiens)
- Construct: from tissue; host or cells: rheumatoid synovium (tissue or synovial cell culture not distinguished)
- Sequence (P03956 100-469): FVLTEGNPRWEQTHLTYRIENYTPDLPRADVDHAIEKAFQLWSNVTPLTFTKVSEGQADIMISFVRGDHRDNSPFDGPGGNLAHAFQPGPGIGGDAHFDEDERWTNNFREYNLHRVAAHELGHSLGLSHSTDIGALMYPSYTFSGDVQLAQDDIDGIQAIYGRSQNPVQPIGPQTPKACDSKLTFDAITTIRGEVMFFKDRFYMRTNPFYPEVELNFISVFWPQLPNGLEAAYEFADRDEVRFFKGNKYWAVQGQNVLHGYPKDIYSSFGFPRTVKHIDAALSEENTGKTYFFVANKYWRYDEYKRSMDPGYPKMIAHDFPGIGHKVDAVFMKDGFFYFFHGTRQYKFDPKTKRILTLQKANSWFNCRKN
- MEASUREMENT PROTOCOL: inhibition of collagenase (acetyl 14C collagen digestion, Cawston and Barrett)
- Assay type: biochemical
- MEASUREMENT CONDITIONS: Table 2; 37° C., 16 hours, native acetyl 14C collagen, pH 7.6; read-out: IC50 (μM) Human Rheumatoid Synovial collagenase
OBSERVATION TYPE: IC50 (µM)

{"columns": ["COMPOUND", "TARGET OF ASSAY", "OBSERVATION TYPE", "UNIT TEXT", "RECORDED RESULT"],
 "data": [
  ["CCCCNC(=O)[C@H](C)NC(=O)C(CC(C)C)C(C)S (single isomer, unassigned) [Example 7 Isomer B]", "Human Rheumatoid Synovial collagenase (Homo sapiens)", "IC50", "µM", 2],
  ["CNC(=O)[C@H](Cc1ccc(OC)cc1)NC(=O)C(CC(C)C)C(C)S (single isomer, unassigned) [Example 1 Isomer A1]", "Human Rheumatoid Synovial collagenase (Homo sapiens)", "IC50", "µM", 19],
  ["CNC(=O)[C@H](Cc1ccc(OC)cc1)NC(=O)C(CC(C)C)C(C)S (single isomer, unassigned) [Example 1 Isomer B1]", "Human Rheumatoid Synovial collagenase (Homo sapiens)", "IC50", "µM", 0.22],
  ["CCCCNC(=O)[C@H](C)NC(=O)C(CC(C)C)C(C)S (single isomer, unassigned) [Example 7 Isomer C]", "Human Rheumatoid Synovial collagenase (Homo sapiens)", "IC50", "µM", 1.2],
  ["CNC(=O)[C@H](Cc1ccc(OC)cc1)NC(=O)C(CC(C)C)C(S)c1ccccc1 (single isomer, unassigned) [Example 2 Isomer B1]", "Human Rheumatoid Synovial collagenase (Homo sapiens)", "IC50", "µM", 3.9]
]}
